For each of the compounds below, state its TGI.
- Test system: SK-OV-3
- PROCEDURE SUMMARY: Growth inhibition of human SKOV3 cells after 48 hrs by sulforhodamine B assay
- Type: functional
- CONDITION CONTEXT: SK-OV-3, 48 h

Look over these answered cases.
Problem: Please supply the value of reported TGI for the item COc1ccc(/C=N/c2nc3[nH]nc(C)n3c(=O)c2S(=O)(=O)NN2C(=O)C(CN3CCN(C)CC3)SC2c2cccs2)cc1 (centres undefined)
Result: > 100 µM

Problem: Please supply the value of reported TGI for the item COc1ccc(/C=N/c2nc3[nH]nc(C)n3c(=O)c2S(=O)(=O)NN2C(=O)C(CN3CCN(C)CC3)SC2c2ccc(OC)cc2)cc1 (centres undefined)
Result: 73.3 µM

Problem: Please supply the value of reported TGI for the item COc1ccc(/C=N/c2nc3[nH]nc(C)n3c(=O)c2S(=O)(=O)NN2C(=O)C(CN3CCOCC3)SC2c2ccc(OC)cc2)cc1 (centres undefined)
Result: > 100 µM

With those in mind, consider the next compound.
Problem: Please supply the value of reported TGI for the item COc1ccc(/C=N/c2nc3[nH]nc(C)n3c(=O)c2S(=O)(=O)NN2C(=O)C(CN3CCOCC3)SC2c2cccs2)cc1 (centres undefined)
Result: > 100 µM

###

- System: HOP-62
- PROCEDURE SUMMARY: Growth inhibition of human HOP62 cells after 48 hrs by sulforhodamine B assay
- Format: functional
- CONDITION CONTEXT: HOP-62, 48 h
REPORTED METRIC: TGI

Problem: Report measured TGI on HOP-62; entry: COc1ccc(/C=N/c2nc3[nH]nc(C)n3c(=O)c2S(=O)(=O)NN2C(=O)C(CN3CCOCC3)SC2c2ccc(OC)cc2)cc1 (centres undefined)
Result: > 100 µM

Problem: Report measured TGI on HOP-62; entry: COc1ccc(/C=N/c2nc3[nH]nc(C)n3c(=O)c2S(=O)(=O)NN2C(=O)C(CN3CCN(C)CC3)SC2c2cccs2)cc1 (centres undefined)
Result: > 100 µM

Problem: Report measured TGI on HOP-62; entry: COc1ccc(/C=N/c2nc3[nH]nc(C)n3c(=O)c2S(=O)(=O)NN2C(=O)C(CN3CCOCC3)SC2c2cccs2)cc1 (centres undefined)
Result: > 100 µM

With those in mind, consider the next molecule.
Problem: Report measured TGI on HOP-62; entry: COc1ccc(/C=N/c2nc3[nH]nc(C)n3c(=O)c2S(=O)(=O)NN2C(=O)C(CN3CCN(C)CC3)SC2c2ccc(OC)cc2)cc1 (centres undefined)
Result: 40.9 µM

###

- Tested on: SK-MEL-5
- PROCEDURE SUMMARY: Growth inhibition of human SK-MEL-5 cells after 48 hrs by sulforhodamine B assay
- Type: functional
- CONDITION CONTEXT: SK-MEL-5, 48 h
REPORTED METRIC: GI50 (µM)
One number for each entry, in µM.

Look over these answered cases.
Problem: Please supply the value of reported GI50 for the item COc1ccc(/C=N/c2nc3[nH]nc(C)n3c(=O)c2S(=O)(=O)NN2C(=O)C(CN3CCOCC3)SC2c2cccs2)cc1 (centres undefined)
Result: 3.71

Problem: Please supply the value of reported GI50 for the item COc1ccc(/C=N/c2nc3[nH]nc(C)n3c(=O)c2S(=O)(=O)NN2C(=O)C(CN3CCN(C)CC3)SC2c2ccc(OC)cc2)cc1 (centres undefined)
Result: 19.3

Problem: Please supply the value of reported GI50 for the item COc1ccc(/C=N/c2nc3[nH]nc(C)n3c(=O)c2S(=O)(=O)NN2C(=O)C(CN3CCN(C)CC3)SC2c2cccs2)cc1 (centres undefined)
Result: 0.72

---
Problem: Please supply the value of reported GI50 for the item COc1ccc(/C=N/c2nc3[nH]nc(C)n3c(=O)c2S(=O)(=O)NN2C(=O)C(CN3CCOCC3)SC2c2ccc(OC)cc2)cc1 (centres undefined)
Result: 19
